# testTarget: MAGI2_4, Q86UL8
# Sequence (Q86UL8 772-865): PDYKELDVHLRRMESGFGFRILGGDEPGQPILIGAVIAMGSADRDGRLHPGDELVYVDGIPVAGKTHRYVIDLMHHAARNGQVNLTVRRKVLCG
# assayExplanation: holdup assay
# Parameters: key: below the threshold = too weak to quantify, mostly under pKd 3.1 to 4
# studyConditions: plain residues with an end cap or a label only (N-terminal biotin on a linker: ahx)
quantity: pKd

HSATSVHTSV [MTMR1, Q13613] : below the threshold
AKPQPVDSWV [ARVCF, O00192] : 4.12
ADENEQVSAV [RAPGEF6, Q8TEU7] : below the threshold
SAPATLSSRA [PDLIM2, Q96JY6] : below the threshold
